Quick reference for IC50 among some compounds
Biological target: ERK2 enzyme (Homo sapiens (Human), UniProt P28482)
Sequence (P28482 whole entry): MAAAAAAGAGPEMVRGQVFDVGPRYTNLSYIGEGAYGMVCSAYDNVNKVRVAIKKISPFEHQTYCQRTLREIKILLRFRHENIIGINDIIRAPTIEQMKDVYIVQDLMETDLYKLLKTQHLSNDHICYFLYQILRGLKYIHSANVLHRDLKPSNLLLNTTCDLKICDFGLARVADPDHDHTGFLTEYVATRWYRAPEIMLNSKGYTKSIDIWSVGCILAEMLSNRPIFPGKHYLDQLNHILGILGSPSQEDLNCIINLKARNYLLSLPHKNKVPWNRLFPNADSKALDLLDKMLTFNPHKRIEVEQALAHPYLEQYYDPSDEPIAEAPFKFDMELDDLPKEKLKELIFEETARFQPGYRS
Assay: Inhibition assay of ERK (Z'-LYTE kinase assay, Ser/Thr 3 peptide substrate)
Type: biochemical
Settings: In vitro, ERK2 enzyme 0.47 ng/μL, 100 μM ATP

Answered cases to consult:
| Mol | IC50 |
| --- | --- |
| Cc1cc(-c2n[nH]c3cc4c(cc23)CN([C@H]2CN(C)C[C@@H]2c2ccccc2)C(=O)N4)cc(C)n1 | 50 to 250 nM |
| O=C1Nc2cc3[nH]nc(-c4cccnc4)c3cc2CN1[C@@H]1CN(CC(F)(F)F)C[C@H]1c1ccccc1 | < 50 nM |
| Cc1cc(-c2n[nH]c3cc4c(cc23)CN(CCC2CC2)C(=O)N4)ccn1 | 50 to 250 nM |

QUERY: Tell me the measured IC50 of "Cc1cc(-c2n[nH]c3cc4c(cc23)CN([C@@H]2CN(CC(F)(F)F)C[C@H]2C(F)(F)F)C(=O)N4)ccn1" , please.
RESULT: < 50 nM

QUERY: Tell me the measured IC50 of "Cn1cc(-c2n[nH]c3cc4c(cc23)CN([C@@H]2CCCN(Cc3cccs3)C2)C(=O)N4)cn1" , please.
RESULT: < 50 nM

QUERY: Tell me the measured IC50 of "Cc1cc(-c2n[nH]c3cc4[nH]c(=O)c(CC5CCCCC5)cc4cc23)ccn1" , please.
RESULT: < 50 nM

QUERY: Tell me the measured IC50 of "Cc1cc(-c2n[nH]c3cc4c(cc23)CN(Cc2ccc(F)c(Cl)c2)C(=O)N4)cc(C)n1" , please.
RESULT: < 50 nM
